- test-summary: Cytotoxicity, MTT assay, HMVEC
- Type: cell-based
- recorded-conditions: human, HMVEC (human microvascular endothelial cells), read-out: HMVEC Cytotox (IC50)
property-name: IC50

Prompt: Could you tell me which IC50 is on file for CC(=O)N[C@H]1CSSC[C@@H](C(N)=O)NC(=O)[C@H](C(C)C)NC(=O)CNC(=O)[C@H](Cc2c[nH]cn2)NC1=O [N—Ac—CHGVC—NH2, reference compound] ?
Completion: > 100 µM

# ---- query molecule ----
Prompt: Could you tell me which IC50 is on file for "CC(=O)N[C@H]1CSSC[C@@H](C(N)=O)NC(=O)[C@H](C(C)C)NC(=O)[C@H](C)NC(=O)[C@H](Cc2c[nH]cn2)NC1=O" ?
Completion: > 100 µM

###

- Tested on: MDA-MB231
- Format: cell-based, human
- recorded-conditions: 3 h
Positions of bridges follow the written chain, without caps; N, C: chain ends. Residues, ends and D or L forms follow the SMILES beside them.
property-name: IC50

Prompt: Could you tell me which IC50 is on file for CC(=O)N[C@H]1CSSC[C@@H](C(N)=O)NC(=O)[C@H](CO)NC(=O)[C@H](C(C)C)NC(=O)CNC(=O)[C@H](Cc2c[nH]cn2)NC1=O [N—Ac—CHGVSC—NH2] (Ac-CHGVSC-NH2; disulfide 1-6) ?
Completion: > 100 µM

Prompt: # repeat for CC(=O)N[C@H]1CSSC[C@@H](C(N)=O)NC(=O)[C@H](C(C)C)NC(=O)[C@H](C)NC(=O)[C@H](Cc2c[nH]cn2)NC(=O)[C@H](CO)NC1=O [N—Ac—CSHAVC—NH2, N-Ac-Cys-Ser-His-Ala-Val-Cys-NH2] (Ac-CSHAVC-NH2; disulfide 1-6)
Completion: > 100 µM

# ---- query compound ----
Prompt: Could you tell me which IC50 is on file for CC[C@H](C)[C@@H]1NC(=O)[C@H](CC(=O)O)NC(=O)[C@H](C(C)C)NC(=O)[C@H](C)NC(=O)[C@H](Cc2c[nH]cn2)NC(=O)[C@H](C)NC(=O)[C@@H](N)CSSC[C@@H](C(N)=O)NC1=O (H-CAHAVDIC-NH2; disulfide 1-8) ?
Completion: > 100 µM
